Target: hα4 and β1 integrins (Homo sapiens, UniProt P05556+P13612)
Sequence (P13612 34-1032): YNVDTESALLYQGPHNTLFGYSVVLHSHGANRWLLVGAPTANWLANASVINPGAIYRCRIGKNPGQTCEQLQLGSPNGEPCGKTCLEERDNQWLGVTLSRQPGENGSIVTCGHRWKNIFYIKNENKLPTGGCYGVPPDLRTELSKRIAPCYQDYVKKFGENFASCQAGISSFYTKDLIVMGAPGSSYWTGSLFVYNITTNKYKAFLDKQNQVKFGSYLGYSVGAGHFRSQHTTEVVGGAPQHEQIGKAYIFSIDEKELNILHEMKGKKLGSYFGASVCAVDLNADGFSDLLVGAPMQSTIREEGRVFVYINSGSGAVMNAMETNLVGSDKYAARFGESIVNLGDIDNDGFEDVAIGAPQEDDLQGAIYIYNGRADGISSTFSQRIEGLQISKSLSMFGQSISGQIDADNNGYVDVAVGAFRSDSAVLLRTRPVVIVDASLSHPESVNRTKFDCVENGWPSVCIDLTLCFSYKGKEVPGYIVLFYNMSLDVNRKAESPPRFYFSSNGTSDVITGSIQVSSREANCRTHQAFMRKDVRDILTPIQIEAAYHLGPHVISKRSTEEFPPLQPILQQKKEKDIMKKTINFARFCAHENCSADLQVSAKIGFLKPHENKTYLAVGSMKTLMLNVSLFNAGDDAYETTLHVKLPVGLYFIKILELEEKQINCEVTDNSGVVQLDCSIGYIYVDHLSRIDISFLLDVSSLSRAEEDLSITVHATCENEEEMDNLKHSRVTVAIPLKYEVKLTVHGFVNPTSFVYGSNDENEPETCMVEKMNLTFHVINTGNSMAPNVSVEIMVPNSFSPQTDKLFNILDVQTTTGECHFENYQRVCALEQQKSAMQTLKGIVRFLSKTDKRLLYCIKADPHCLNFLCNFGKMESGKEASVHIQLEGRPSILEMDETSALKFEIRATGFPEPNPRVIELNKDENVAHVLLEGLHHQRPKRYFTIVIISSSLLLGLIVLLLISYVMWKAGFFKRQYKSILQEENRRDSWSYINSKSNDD
Sequence (P05556 21-798): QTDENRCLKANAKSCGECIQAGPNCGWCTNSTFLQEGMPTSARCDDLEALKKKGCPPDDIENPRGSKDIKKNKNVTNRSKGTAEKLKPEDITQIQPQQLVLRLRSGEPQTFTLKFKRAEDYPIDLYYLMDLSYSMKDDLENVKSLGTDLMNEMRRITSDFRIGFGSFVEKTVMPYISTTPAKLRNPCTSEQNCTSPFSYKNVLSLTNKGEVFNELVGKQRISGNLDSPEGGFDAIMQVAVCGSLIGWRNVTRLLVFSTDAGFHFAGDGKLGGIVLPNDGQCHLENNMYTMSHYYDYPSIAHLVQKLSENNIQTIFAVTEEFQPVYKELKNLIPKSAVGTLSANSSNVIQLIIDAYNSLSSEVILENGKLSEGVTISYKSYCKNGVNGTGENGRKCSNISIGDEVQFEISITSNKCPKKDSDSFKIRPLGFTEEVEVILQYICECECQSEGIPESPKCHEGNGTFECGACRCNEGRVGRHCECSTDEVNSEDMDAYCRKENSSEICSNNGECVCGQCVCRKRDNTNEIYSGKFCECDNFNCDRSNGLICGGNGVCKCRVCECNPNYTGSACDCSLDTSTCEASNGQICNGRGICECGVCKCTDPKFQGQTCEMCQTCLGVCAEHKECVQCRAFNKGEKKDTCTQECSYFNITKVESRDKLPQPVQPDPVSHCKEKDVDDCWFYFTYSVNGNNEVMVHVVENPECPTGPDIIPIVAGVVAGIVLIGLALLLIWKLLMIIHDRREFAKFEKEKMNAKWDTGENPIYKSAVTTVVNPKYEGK
Assay: In vitro inhibition of binding between CHO cells expressing hα4 and β1 integrins and Eu3+-hVCAM-1 D1D7-IgG
Details: CHO cells expressing hα4 and β1 integrins; Eu3+-hVCAM-1 D1D7-IgG ligand; without HSA
outcomeMeasure: Ki (nM)

>>> obsvalue("Cn1cc(C(=O)Nc2cc(Cl)c(CC(=O)N3C[C@@H](N4CCC(S(C)(=O)=O)CC4)C[C@H]3CO[C@H]3CC[C@H](C(=O)O)CC3)cc2Cl)c2ccccc21 [Example 108]")
3.1
>>> obsvalue("Cn1cc(C(=O)Nc2cc(Cl)c(CC(=O)N3C[C@@H](N4CCN(C(=O)C(C)(C)C)CC4)C[C@H]3CO[C@H]3CC[C@H](C(=O)O)CC3)cc2Cl)c2ccccc21 [Example 149]")
1.7
>>> obsvalue("O=C(Nc1cc(F)c(CC(=O)N2C[C@@H](N3CC(N4CCCCC4)C3)C[C@H]2CO[C@H]2CC[C@H](C(=O)O)CC2)cc1Cl)c1csc2ccccc12 [Example 28]")
2.6
